Assay: Clearance in rat at 0.05 mg/kg, iv
Assay type: ADME, organism-based
Conditions: in vivo
Measurement kind: clearance (mL/min/kg)
Numbers only, in mL/min/kg.

Inquiry: Please report the measured clearance for C[C@@H](NC(=O)c1ccc(F)cc1)c1ccc2c(n1)CCCN2C(=O)c1cccc(Cl)c1
Reply text: 57

====

Target: Cytochrome P450 2C9 (Homo sapiens)
Sequence (P11712 whole entry): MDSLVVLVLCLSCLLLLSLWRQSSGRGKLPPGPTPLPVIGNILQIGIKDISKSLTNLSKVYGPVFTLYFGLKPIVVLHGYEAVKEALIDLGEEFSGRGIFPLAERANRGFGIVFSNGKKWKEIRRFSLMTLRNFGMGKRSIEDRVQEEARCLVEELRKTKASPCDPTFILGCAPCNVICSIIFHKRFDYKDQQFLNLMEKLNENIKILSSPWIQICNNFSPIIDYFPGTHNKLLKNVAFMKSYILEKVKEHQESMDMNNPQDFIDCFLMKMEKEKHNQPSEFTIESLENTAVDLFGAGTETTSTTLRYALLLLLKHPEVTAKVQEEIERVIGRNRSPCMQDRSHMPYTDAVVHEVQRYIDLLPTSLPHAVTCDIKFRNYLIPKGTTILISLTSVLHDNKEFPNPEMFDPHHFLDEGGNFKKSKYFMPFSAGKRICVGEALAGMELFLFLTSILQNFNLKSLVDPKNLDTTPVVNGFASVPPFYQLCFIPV
Measurement kind: pIC50
One number for each entry, as −log10 of the molar value.

Inquiry: Kindly indicate its recorded pIC50. Item: C[C@@H](NC(=O)c1ccc(F)cc1)c1ccc2c(n1)CCCN2c1ccnc(C(F)(F)F)n1
Reply text: 4.74

====

Test: Solubility of compound in PBS buffer at pH 7 at 200 uM incubated for 24 hrs in shaker by UPLC-DAD analysis
Assay type: physicochemical
Measurement kind: solubility at 24 h, 200 µM
State the result as a value with its unit after it.

// known answers, use as guide
CC(C)CC(=O)N1CCCc2cc(CNC(=O)c3ccsc3)ccc21	137 µM
COC(=O)N1CCCc2nc([C@@H](C)NC(=O)c3ccc(F)cc3)ccc21	154 µM
C[C@@H](NC(=O)c1ccc(F)cc1)c1ccc2c(n1)CCCN2C(=O)C1(C(F)(F)F)CC1	162 µM

As a next step, examine the molecule that follows.
Inquiry: Tell me solubility at 24 h, 200 µM reported for C[C@@H](NC(=O)c1ccc(F)cc1)c1ccc2c(n1)CCCN2c1ccncn1
Reply text: 164 µM

====

Exercise: state measured fraction unbound for each of the molecules provided.
Test: Protein binding in human plasma assessed as unbound fraction
Assay type: ADME, cell-free
Numbers only.

C[C@@H](NC(=O)c1ccc(F)cc1)c1ccc2c(n1)CCCN2C(=O)c1cccc(Cl)c1	0.029
C[C@@H](NC(=O)c1ccc(F)cc1)c1ccc2c(n1)CCCN2c1ccnc(C(F)(F)F)n1	0.05

For the next question, use this molecule.
Inquiry: // fetch fraction unbound given entry C[C@@H](NC(=O)c1ccc(F)cc1)c1ccc2c(n1)CCCN2C(=O)OC1CC1
Reply text: 0.094

====

Experiment: Inhibition of Ca ion channel (unknown origin)
Set-up: species or system Homo sapiens
Measurement kind: IC50 (µM)
Answers are plain numbers, in µM.

Would you please look over these solved cases?
C[C@@H](NC(=O)c1ccc(F)cc1)c1ccc2c(n1)CCCN2C(=O)c1cccc(Cl)c1	20
C[C@@H](NC(=O)c1ccc(F)cc1)c1ccc2c(n1)CCCN2c1ccnc(C(F)(F)F)n1	6

Next:
Inquiry: Entry C[C@@H](NC(=O)c1ccc(F)cc1)c1ccc2c(n1)CCCN2C(=O)OC1CC1 needs its IC50 filled in; supply it.
Reply text: 60

====

For each record, write down the corresponding Papp.
Assay: Apparent permeability of compound
Format: ADME
Conditions: not told
// return the numeric value with its unit appended

State recorded Papp for all listed compounds.
1. C[C@@H](NC(=O)c1ccc(F)cc1)c1ccc2c(n1)CCCN2C(=O)OC1CC1
2. C[C@@H](NC(=O)c1ccc(F)cc1)c1ccc2c(n1)CCCN2c1ccnc(C(F)(F)F)n1

Reply text:
["32 ×10⁻⁶ cm/s", "33 ×10⁻⁶ cm/s"]

Inquiry: Determine its reported Papp: C[C@@H](NC(=O)c1ccc(F)cc1)c1ccc2c(n1)CCCN2C(=O)c1cccc(Cl)c1
Reply text: 32 ×10⁻⁶ cm/s

====

Assay: Solubility of compound in PBS buffer at pH 7 at 200 uM incubated for 24 hrs in shaker by UPLC-DAD analysis
Format: physicochemical
Exercise: for every item that follows, state its recorded log10(solubility at 24 h, 200 µM).
Parameter value (number): base-10 log of solubility at 24 h, 200 µM in µM.

CC(C)CC(=O)N1CCCc2cc(CNC(=O)c3ccc(Cl)cc3)cnc21	1.99

Hi, could you look up log10(solubility at 24 h, 200 µM) for each item in my list?
1. CC(C)CC(=O)N1CCCc2cc(CNC(=O)c3ccc(Cl)cc3)ccc21
2. C[C@@H](NC(=O)c1ccc(F)cc1)c1ccc2c(n1)CCCN2c1cccnc1
3. Cc1nccc(N2CCCc3nc([C@@H](C)NC(=O)c4ccc(F)cc4)ccc32)n1
4. Cc1cc(N2CCCc3nc([C@@H](C)NC(=O)c4ccc(F)cc4)ccc32)ccn1

Reply text:
1. 1.11
2. 2.17
3. 2.22
4. 2.22
